protocol text: ATG_DR4_LXR_CIS: Attagene CIS-FACTORIAL HepG2 Assay for human Liver X Receptor (LXR), DR4 submotif (AID 2282929)
condition: HepG2 Attagene DR4 cis-reporter, mRNA transcription; actives raise or lower the signal
The source made the active and inactive calls. How the source made its calls: active means hit-call score of the fitted dose curve at least 0.9, where 1 is the maximum; inactive means score below 0.9.
A correct response names exactly one class from active, inactive

Request: Dear colleague, could you share the recorded outcome for CCC(=O)OCCC(C)CCC=C(C)C (configuration not stated) when you have a moment?
Response: inactive

Request: Write down the call the test reported for this compound. Item: O=S(=O)(O)NC1CCCCC1
Response: inactive

Request: Tell me the assay call for CC(C)(CO)[N+](=O)[O-] please.
Response: inactive

Request: Fill in: this test's call for C=C(C)[C@@H]1CCC2=CC(=O)C[C@@H](C)[C@]2(C)C1 is ___
Response: active

Request: For COCCCOc1ccnc(CS(=O)c2nc3ccccc3[nH]2)c1C (configuration not stated) , which call appears in the assay record?
Response: inactive

Request: Kindly provide the recorded test outcome for the following compound: CO[Si](CCCn1c(=O)n(CCC[Si](OC)(OC)OC)c(=O)n(CCC[Si](OC)(OC)OC)c1=O)(OC)OC
Response: inactive

Request: Per the records of this test, what outcome belongs to CC(C)(C)c1cc(CCC(=O)NN)cc(C(C)(C)C)c1O ?
Response: inactive

Request: Called result for N#Cc1nc(Cl)c(Cl)c(Cl)c1Cl
Response: active

Request: Hi team, can someone confirm the assay call for O=C(O)c1cn(-c2ccc(F)cc2)c2cc(N3CCNCC3)c(F)cc2c1=O ?
Response: inactive

Request: Test call for this compound, please: CCC/C=C/C=O
Response: inactive

Request: Status in this test for Nc1ccc(S(=O)(=O)O)c(N)c1 ?
Response: inactive

Request: Query: recorded result category for O=C(O)C[C@H](O)C[C@H](O)/C=C/c1c(C2CC2)nc2ccccc2c1-c1ccc(F)cc1 in this test
Response: inactive

* * *

measured target: Heat shock factor protein 1 (Homo sapiens) (UniProt Q00613)
Sequence (Q00613 whole entry, looked up): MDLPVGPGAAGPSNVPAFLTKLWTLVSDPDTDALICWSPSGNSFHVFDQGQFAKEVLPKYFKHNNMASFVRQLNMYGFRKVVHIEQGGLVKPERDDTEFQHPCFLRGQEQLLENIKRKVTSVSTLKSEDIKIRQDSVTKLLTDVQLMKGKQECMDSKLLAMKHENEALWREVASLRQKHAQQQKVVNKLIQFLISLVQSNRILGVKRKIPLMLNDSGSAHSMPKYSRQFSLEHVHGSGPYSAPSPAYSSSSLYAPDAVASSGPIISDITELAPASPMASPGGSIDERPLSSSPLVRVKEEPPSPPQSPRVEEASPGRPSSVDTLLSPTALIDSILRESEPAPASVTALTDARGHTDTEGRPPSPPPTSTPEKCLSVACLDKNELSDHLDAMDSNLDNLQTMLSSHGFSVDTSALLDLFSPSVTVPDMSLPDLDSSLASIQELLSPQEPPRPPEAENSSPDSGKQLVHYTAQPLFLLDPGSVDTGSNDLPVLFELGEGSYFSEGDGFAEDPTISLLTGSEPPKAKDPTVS
protocol text: ATG_HSE_CIS: Attagene CIS-FACTORIAL HepG2 Assay for human Heat Shock Transcription Factor 1 (HSE) (AID 2282953)
condition: HepG2 HSE cis-reporter, Attagene RNA transcription; actives raise or lower the signal
Active and inactive are the calls of the source. How the source made its calls: active means hit-call score of the fitted dose curve at least 0.9, where 1 is the maximum; inactive means score below 0.9.
Hello, when you answer, please use one of the following outcomes: active, inactive

Request: Dear colleague, could you share the recorded outcome for O=C1CCc2ccccc2O1 when you have a moment?
Response: inactive

Request: Check the results log: what was the call for S=C(S)NCCNC(=S)S ?
Response: inactive

Request: Look up the recorded call for CC(=O)/C=C/C1=C(C)CCCC1(C)C in this test.
Response: inactive

Request: Which result was noted for this molecule in the test: c1ccc2[nH]ccc2c1
Response: inactive

Request: Returns: the outcome recorded for Cc1ccc(C(C)C)cc1O in this assay.
Response: inactive

Request: Hi team, can someone confirm the assay call for CC(=O)c1c(C)cc(C(C)(C)C)cc1C ?
Response: inactive

Request: Hi, sorry to bother you, what did the test record for O=C1CCCCCCCCCCCCCCO1 ?
Response: inactive

Request: Assay result, entry CC(=O)C(=O)O — outcome?
Response: inactive

Request: Each molecule tested received a call. Report the one for Cc1c(Cl)c(=O)oc2cc(O)ccc12 .
Response: inactive

Request: # fetch the recorded call for Cc1ccc(Nc2ccc(O)c3c2C(=O)c2ccccc2C3=O)cc1 here
Response: inactive

Request: Dear colleague, could you share the recorded outcome for CO[Si](CCCn1c(=O)n(CCC[Si](OC)(OC)OC)c(=O)n(CCC[Si](OC)(OC)OC)c1=O)(OC)OC when you have a moment?
Response: inactive

Request: I would be grateful if you could indicate the recorded call for C=C(C)[C@@H]1CCC2=CC(=O)C[C@@H](C)[C@]2(C)C1 .
Response: inactive

Request: Please share the test call associated with CCCCCC=CCC(=O)OC .
Response: inactive

Request: // return assay outcome for CC(C)[C@@H]1CC[C@@H](C)CC1=O
Response: inactive

Request: // param item: CC1CCC2CC1C2(C)C (stereo not drawn) ; yields the recorded call
Response: inactive

Request: Kindly provide the recorded test outcome for the following molecule: CCC(C)(O)CCC=C(C)C (stereo not drawn)
Response: inactive

Request: Test call for this molecule, please: COc1cc(C=O)ccc1OC(=O)C(C)C
Response: inactive

Request: Any idea what this test logged for COc1ccc(O)cc1 ?
Response: inactive

Request: What outcome does the record of this test show for C=CC(C)(O)CCC=C(C)CCC=C(C)C (stereo not drawn) ?
Response: active

Request: Status in this test for OCCOCCOCCOCCO ?
Response: active

Request: Lab log entry: CNC(=O)Oc1ccc2c(c1)[C@]1(C)CCN(C)[C@@H]1N2C — outcome as called in the assay?
Response: inactive

Request: Recorded test outcome, item CC(=O)OCC=Cc1ccccc1
Response: inactive

Request: For N#Cc1nc(Cl)c(Cl)c(Cl)c1Cl , what call appears in the results of this test?
Response: active

Request: Status in this test for COCCOCCOCCOCCOCCO ?
Response: inactive

Request: # outcome recorded in this test, key = FC1(F)C(F)(F)C(F)(F)C2(F)C(F)(C1(F)F)C(F)(F)C(F)(F)C1(F)C(F)(F)C(F)(F)C(F)(F)C(F)(F)C12F (stereo not drawn)
Response: inactive

Request: What was the test verdict on O=C(Nc1ccccc1)c1cc([N+](=O)[O-])ccc1Cl ?
Response: active

Request: Could you check what this test reported for CCN(CC)c1ccc(C(=C2C=CC(=[N+](CC)CC)C=C2)c2ccc(S(=O)(=O)O)cc2S(=O)(=O)[O-])cc1 ?
Response: inactive

Request: For O=C[C@H](O)[C@H](O)[C@H](O)CO , which call appears in the assay record?
Response: inactive
